TARGET SYSTEM: human TLR8 (Homo sapiens, UniProt Q9NR97)
Construct: host or cells: HEK293 NF-kB reporter cells
Sequence (Q9NR97 27-1041): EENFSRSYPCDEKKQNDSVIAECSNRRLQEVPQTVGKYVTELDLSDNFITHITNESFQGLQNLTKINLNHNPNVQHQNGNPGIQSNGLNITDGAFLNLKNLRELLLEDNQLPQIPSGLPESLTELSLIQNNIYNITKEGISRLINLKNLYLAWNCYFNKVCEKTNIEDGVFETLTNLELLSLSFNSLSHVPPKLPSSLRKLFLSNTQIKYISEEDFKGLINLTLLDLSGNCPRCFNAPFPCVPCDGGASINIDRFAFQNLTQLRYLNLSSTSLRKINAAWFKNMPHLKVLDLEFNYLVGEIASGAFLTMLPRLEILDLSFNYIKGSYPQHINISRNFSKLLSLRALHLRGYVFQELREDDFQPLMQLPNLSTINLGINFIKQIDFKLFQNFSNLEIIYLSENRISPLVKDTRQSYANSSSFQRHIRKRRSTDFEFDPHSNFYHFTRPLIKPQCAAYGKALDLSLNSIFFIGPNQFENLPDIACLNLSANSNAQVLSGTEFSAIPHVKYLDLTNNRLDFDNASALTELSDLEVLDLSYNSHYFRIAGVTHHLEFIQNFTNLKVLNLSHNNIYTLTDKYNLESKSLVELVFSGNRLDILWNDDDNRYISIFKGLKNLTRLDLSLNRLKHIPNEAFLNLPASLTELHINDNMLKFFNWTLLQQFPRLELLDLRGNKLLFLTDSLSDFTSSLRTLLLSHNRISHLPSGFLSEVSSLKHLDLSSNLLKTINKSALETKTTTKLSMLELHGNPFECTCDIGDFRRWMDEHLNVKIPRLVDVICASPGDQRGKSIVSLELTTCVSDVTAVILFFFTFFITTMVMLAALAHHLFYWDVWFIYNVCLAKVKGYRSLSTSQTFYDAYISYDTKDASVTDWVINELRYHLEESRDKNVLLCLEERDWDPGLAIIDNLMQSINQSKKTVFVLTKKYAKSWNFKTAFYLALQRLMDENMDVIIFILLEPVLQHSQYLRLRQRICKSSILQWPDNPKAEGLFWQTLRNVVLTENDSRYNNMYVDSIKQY
PROTOCOL: HEK Reporter Assay, HEK293 NFKB reporter cells expressing human TLR8
Type: cell-based
TEST CONTEXT: read-out: HEK-293 hTLR8 EC50
// values below are reported EC50

MOLECULE	EC50
CCCCCc1cc2ccc(-c3cccc(S(=O)(=O)N4CC(CN)C4)c3)cc2nc1N [AQ-12]	1480 nM
CCCCCc1cc2c(CCCCCNC=O)cccc2nc1N [AQ-4]	> 9000 nM
CCCCCc1cc2ccc(C(=O)Nc3ccc(N4CCC(C(=O)NCCNC(=O)OC(C)(C)C)CC4)nc3)cc2nc1N [AQ-10]	> 9000 nM
CCCCCc1cc2ccc(-c3cccc(S(=O)(=O)N4CC(CO)C4)c3)cc2nc1N [AQ-5]	562 nM
CCCCCc1cc2ccc(-c3cccc(S(=O)(=O)N4CC(CN/C(=N\CCOC)Nc5cccc(C#N)c5)C4)c3)cc2nc1N [AQ-17]	> 9000 nM
CCCCCc1cc2c(CC3CCCN3C)cc(-c3cccc(S(=O)(=O)N4CC(CO)C4)c3)cc2nc1N (centres unmarked) [AQ-15]	2450 nM
CCCCCc1cc2ccc(-c3cccc(S(=O)(=O)N4CC(CNC(=O)OC(C)(C)C)C4)c3)cc2nc1N [AQ-11]	> 9000 nM
CCCCCc1cc2c(CCCCCNC(C)=O)cccc2nc1N [AQ-1]	> 9000 nM
